The values you see were collected from ChEMBL document CHEMBL2429832.

Entries with reported log10 of Ki on Muscarinic acetylcholine receptor M2 (Homo sapiens, UniProt P08172)
Sequence (P08172 whole entry): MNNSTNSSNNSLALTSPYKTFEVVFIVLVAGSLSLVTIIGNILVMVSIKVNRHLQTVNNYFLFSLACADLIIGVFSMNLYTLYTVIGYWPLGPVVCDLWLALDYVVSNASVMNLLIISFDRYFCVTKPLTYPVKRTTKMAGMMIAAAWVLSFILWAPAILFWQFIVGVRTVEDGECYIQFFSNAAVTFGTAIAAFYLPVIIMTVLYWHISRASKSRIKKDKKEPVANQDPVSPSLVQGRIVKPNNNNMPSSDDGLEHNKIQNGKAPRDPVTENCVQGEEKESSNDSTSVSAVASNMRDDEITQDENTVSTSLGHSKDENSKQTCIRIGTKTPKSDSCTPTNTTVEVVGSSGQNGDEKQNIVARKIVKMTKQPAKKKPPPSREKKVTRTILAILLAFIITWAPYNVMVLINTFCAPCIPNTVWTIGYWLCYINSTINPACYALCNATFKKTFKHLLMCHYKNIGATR
attribute_measured: log10 of Ki (log10 of the value in µM)

>>> quantitative_result("C1C2C3CC4C2C2C1C3[C@H](NCC13C5C6C7C5C1C7C63)C42 (some centres not stated)")
-0.71
>>> quantitative_result("CN(Cc1cccc(F)c1)[C@H]1C2C3CC4C2C(=O)C2C4C3C21 (some centres not stated)")
0.24
>>> quantitative_result("c1ccc(CCN[C@H]2C3C4CC5C6C4CC3C6C52)nc1 (some centres not stated)")
0.45
>>> quantitative_result("CN(CCCc1cccc(F)c1)[C@H]1C2C3CC4C2C(=O)C2C4C3C21 (some centres not stated)")
-0.31
>>> quantitative_result("c1ccc(CCN[C@H]2C3C4CC5C6C4CC3C6C52)cc1 (some centres not stated)")
0.01
>>> quantitative_result("CN(CCc1cccc(F)c1)[C@H]1C2C3CC4C2C(=O)C2C4C3C21 (some centres not stated)")
0.36
>>> quantitative_result("CN(Cc1ccccc1)[C@H]1C2C3CC4C2C(=O)C2C4C3C21 (some centres not stated)")
-0.32

---

- target_under_test: Muscarinic acetylcholine receptor M1 (Homo sapiens)
- Sequence (P11229 whole entry): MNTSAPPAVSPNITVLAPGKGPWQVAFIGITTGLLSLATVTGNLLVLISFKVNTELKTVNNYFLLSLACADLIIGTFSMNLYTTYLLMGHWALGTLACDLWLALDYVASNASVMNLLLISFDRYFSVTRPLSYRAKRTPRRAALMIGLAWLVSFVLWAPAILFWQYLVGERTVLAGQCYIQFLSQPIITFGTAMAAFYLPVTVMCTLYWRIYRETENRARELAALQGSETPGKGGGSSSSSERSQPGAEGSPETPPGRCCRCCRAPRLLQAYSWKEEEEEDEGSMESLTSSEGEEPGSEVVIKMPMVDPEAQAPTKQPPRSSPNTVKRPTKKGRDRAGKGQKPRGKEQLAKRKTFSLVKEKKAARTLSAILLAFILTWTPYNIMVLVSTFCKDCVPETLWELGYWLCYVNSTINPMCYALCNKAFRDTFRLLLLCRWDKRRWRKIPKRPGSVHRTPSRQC
pKi: −log10 of the molar value.
attribute_measured: pKi

>>> quantitative_result("C1C2C3CC4C2C2C1C3[C@H](NCC13C5C6C7C5C1C7C63)C42 (some centres not stated)")
5.13

---

- target_under_test: Sodium-dependent serotonin transporter (Homo sapiens, UniProt P31645)
- Sequence (P31645 whole entry): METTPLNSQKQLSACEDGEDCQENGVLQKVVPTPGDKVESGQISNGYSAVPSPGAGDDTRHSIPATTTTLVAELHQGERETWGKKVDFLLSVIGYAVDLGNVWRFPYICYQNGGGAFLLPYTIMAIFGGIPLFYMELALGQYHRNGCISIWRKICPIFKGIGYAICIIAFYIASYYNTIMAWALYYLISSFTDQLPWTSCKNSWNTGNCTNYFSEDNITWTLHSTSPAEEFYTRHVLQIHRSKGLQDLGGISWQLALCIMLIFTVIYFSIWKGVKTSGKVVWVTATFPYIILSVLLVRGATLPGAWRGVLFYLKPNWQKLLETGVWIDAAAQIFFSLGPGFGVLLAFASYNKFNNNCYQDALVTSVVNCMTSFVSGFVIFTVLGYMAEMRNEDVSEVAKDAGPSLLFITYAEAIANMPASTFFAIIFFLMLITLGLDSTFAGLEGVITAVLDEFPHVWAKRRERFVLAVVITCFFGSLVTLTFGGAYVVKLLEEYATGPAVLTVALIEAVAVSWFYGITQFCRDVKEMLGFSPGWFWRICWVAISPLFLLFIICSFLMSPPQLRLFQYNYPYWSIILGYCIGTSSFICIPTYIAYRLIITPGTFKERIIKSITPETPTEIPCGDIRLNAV
attribute_measured: Ki

>>> result("CN(Cc1ccc2c(c1)OCO2)[C@H]1C2C3CC4C5C3CC2C5C41 (stereo partly specified)")
"> 10 µM"

---

- target_under_test: D(2) dopamine receptor (Homo sapiens, UniProt P14416)
- Sequence (P14416 whole entry): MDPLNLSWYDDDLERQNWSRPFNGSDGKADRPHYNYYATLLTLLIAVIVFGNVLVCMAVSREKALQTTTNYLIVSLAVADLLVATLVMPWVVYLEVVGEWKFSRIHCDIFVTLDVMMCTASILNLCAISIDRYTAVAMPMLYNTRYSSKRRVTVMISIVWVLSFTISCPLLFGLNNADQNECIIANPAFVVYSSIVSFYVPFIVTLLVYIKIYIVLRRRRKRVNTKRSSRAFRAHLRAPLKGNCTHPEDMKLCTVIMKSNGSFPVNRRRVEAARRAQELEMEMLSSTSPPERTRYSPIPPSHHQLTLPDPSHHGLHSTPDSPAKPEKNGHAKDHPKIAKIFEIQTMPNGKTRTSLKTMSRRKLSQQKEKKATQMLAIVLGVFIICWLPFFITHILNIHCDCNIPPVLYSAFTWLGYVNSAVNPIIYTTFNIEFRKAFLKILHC
- experiment_notes: Inhibition of dopamine D2 receptor (unknown origin) by PDSP assay
pKi: −log10 of the molar value.
attribute_measured: pKi

>>> quantitative_result("CN(CCc1ccccc1)[C@H]1C2C3CC4C5C3CC2C5C41 (stereo partly specified)")
5.29
>>> quantitative_result("c1ccc(CCN[C@H]2C3C4CC5C6C4CC3C6C52)nc1 (stereo partly specified)")
5.00
>>> quantitative_result("C1C2C3CC4C2C2C1C3[C@H](NCC13C5C6C7C5C1C7C63)C42 (stereo partly specified)")
5.25

---

- experiment_notes: Inhibition of rat brain BZP receptor by PDSP assay
attribute_measured: Ki (µM)

>>> quantitative_result("CN(Cc1ccc2c(c1)OCO2)[C@H]1C2C3CC4C5C3CC2C5C41 (stereo partly specified)")
4.88

---

- target_under_test: Histamine H2 receptor (Homo sapiens)
- Sequence (P25021 whole entry): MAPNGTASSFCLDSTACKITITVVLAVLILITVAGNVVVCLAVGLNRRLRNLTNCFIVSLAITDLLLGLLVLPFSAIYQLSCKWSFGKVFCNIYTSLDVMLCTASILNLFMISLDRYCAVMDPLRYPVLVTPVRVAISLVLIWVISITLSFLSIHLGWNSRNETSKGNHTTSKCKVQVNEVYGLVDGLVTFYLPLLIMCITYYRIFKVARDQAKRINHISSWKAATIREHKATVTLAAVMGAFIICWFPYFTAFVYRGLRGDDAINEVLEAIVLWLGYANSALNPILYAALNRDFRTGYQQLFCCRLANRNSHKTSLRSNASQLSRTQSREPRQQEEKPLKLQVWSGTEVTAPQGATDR
- experiment_notes: Inhibition of histamine H2 receptor (unknown origin) at 10 uM by PDSP assay relative to control
attribute_measured: inhibition

>>> result("C1CCC(CN[C@H]2C3C4CC5C6C4CC3C6C52)CC1 (stereo partly specified)")
"< 50%"
>>> result("c1ccc(CCN[C@H]2C3C4CC5C6C4CC3C6C52)nc1 (stereo partly specified)")
"< 50%"
>>> result("CN(Cc1cccnc1)[C@H]1C2C3CC4C5C3CC2C5C41 (stereo partly specified)")
"< 50%"
>>> result("CN(Cc1ccccc1)[C@H]1C2C3CC4C2C(=O)C2C4C3C21 (stereo partly specified)")
"< 50%"
>>> result("CN(CCCc1cccc(F)c1)[C@H]1C2C3CC4C5C3CC2C5C41 (stereo partly specified)")
"< 50%"
>>> result("CN(CCc1ccccn1)[C@H]1C2C3CC4C5C3CC2C5C41 (stereo partly specified)")
"< 50%"
>>> result("CN(CCCc1cccc(F)c1)[C@H]1C2C3CC4C2C(=O)C2C4C3C21 (stereo partly specified)")
"< 50%"
>>> result("CN(CC1CCCCC1)[C@H]1C2C3CC4C5C3CC2C5C41 (stereo partly specified)")
"< 50%"
>>> result("CN(CCc1ccccn1)[C@H]1C2C3CC4C2C(=O)C2C4C3C21 (stereo partly specified)")
"< 50%"
>>> result("CN(CCc1cccc(F)c1)[C@H]1C2C3CC4C2C(=O)C2C4C3C21 (stereo partly specified)")
"< 50%"
>>> result("CN(Cc1cccc(F)c1)[C@H]1C2C3CC4C2C(=O)C2C4C3C21 (stereo partly specified)")
"< 50%"

---

- target_under_test: Alpha-2C adrenergic receptor (Homo sapiens)
- Sequence (P18825 whole entry): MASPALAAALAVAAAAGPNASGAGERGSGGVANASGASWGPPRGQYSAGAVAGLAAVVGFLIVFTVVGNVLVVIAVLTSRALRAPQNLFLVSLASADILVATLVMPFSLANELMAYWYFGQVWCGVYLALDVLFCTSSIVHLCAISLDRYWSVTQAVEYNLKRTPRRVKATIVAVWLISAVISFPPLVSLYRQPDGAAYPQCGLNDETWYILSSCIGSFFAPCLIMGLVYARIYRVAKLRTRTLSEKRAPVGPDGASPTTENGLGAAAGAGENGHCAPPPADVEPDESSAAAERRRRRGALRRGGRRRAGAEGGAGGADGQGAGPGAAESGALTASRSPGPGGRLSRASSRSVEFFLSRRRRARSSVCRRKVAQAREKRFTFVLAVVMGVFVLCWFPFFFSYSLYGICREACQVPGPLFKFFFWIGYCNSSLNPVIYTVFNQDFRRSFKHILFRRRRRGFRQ
Labelling field: enter T if recorded Ki is less than 3 µM. Enter F if it equals or exceeds that cut-off.

>>> assigned_category("COc1cc(CN[C@H]2C3C4CC5C6C4CC3C6C52)cc(OC)c1OC (some centres not stated)")
"T"
>>> assigned_category("CN(CCc1ccccc1)[C@H]1C2C3CC4C5C3CC2C5C41 (some centres not stated)")
"T"
>>> assigned_category("OC12C3C4CC5C6C4C1C6C(C53)N2Cc1cccnc1 (configuration not stated)")
"F"
>>> assigned_category("CN(CCc1ccccc1)[C@H]1C2C3CC4C2C(=O)C2C4C3C21 (some centres not stated)")
"F"
>>> assigned_category("COc1cc(CN(C)[C@H]2C3C4CC5C6C4CC3C6C52)cc(OC)c1OC (some centres not stated)")
"T"
>>> assigned_category("CN(CCCc1cccc(F)c1)[C@H]1C2C3CC4C5C3CC2C5C41 (some centres not stated)")
"F"

---

Here's a batch of compounds along with measured Ki for UniProtKB P35367.
Sequence (P35367 whole entry): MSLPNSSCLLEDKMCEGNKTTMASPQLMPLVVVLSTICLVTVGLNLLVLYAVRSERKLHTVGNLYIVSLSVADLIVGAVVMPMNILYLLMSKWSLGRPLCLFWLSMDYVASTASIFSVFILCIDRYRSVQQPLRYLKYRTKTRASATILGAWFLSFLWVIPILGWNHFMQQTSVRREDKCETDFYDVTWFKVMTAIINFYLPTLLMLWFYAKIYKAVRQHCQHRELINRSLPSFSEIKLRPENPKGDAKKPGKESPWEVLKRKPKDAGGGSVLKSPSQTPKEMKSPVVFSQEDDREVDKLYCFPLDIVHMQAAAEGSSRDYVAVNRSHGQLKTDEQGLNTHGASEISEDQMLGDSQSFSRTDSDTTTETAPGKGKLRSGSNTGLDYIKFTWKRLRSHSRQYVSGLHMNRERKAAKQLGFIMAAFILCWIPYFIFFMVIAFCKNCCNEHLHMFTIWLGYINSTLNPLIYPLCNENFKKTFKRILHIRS
attribute_measured: Ki (µM)

>>> quantitative_result("COc1cc(CN[C@H]2C3C4CC5C6C4CC3C6C52)cc(OC)c1OC (stereo not given in full)")
5.57
>>> quantitative_result("c1cc2c(cc1CN[C@H]1C3C4CC5C6C4CC3C6C51)OCO2 (stereo not given in full)")
4.18
>>> quantitative_result("C1C2C3CC4C2C2C1C3[C@H](NCC13C5C6C7C5C1C7C63)C42 (stereo not given in full)")
4.74

---

- target_under_test: 5-hydroxytryptamine receptor 1E (Homo sapiens)
- experiment_notes: Inhibition of 5-HT1E receptor (unknown origin) at 10 uM by PDSP assay relative to control
Below, each entry is listed alongside its reported inhibition.
attribute_measured: inhibition

>>> result("c1ccc(CCN[C@H]2C3C4CC5C6C4CC3C6C52)cc1 (stereo partly specified)")
"< 50%"
>>> result("CN(CCCc1cccc(F)c1)[C@H]1C2C3CC4C5C3CC2C5C41 (stereo partly specified)")
"< 50%"
>>> result("c1ccc(CN[C@H]2C3C4CC5C6C4CC3C6C52)cc1 (stereo partly specified)")
"< 50%"
>>> result("CN(Cc1ccc2c(c1)OCO2)[C@H]1C2C3CC4C5C3CC2C5C41 (stereo partly specified)")
"< 50%"
>>> result("CN(Cc1cccnc1)[C@H]1C2C3CC4C5C3CC2C5C41 (stereo partly specified)")
"< 50%"
>>> result("COc1ccc(CN(C)[C@H]2C3C4CC5C3C(=O)C3C5C4C32)cc1OC (stereo partly specified)")
"< 50%"
>>> result("COc1ccc(CN[C@H]2C3C4CC5C6C4CC3C6C52)cc1OC (stereo partly specified)")
"< 50%"
>>> result("COc1ccc(CN(C)[C@H]2C3C4CC5C6C4CC3C6C52)cc1OC (stereo partly specified)")
"< 50%"
>>> result("CN(Cc1ccccc1)[C@H]1C2C3CC4C2C(=O)C2C4C3C21 (stereo partly specified)")
"< 50%"
>>> result("COc1cc(CN(C)[C@H]2C3C4CC5C6C4CC3C6C52)cc(OC)c1OC (stereo partly specified)")
"< 50%"
>>> result("c1ccc(CCN[C@H]2C3C4CC5C6C4CC3C6C52)nc1 (stereo partly specified)")
"< 50%"

---

# inhibition at 30 µM annotations
- System: RAW264.7
- experiment_notes: Neuroprotective activity in mouse RAW264.7 cells assessed as inhibition of LPS-stimulated nitric oxide release at 30 uM after 20 to 24 hrs by Griess assay relative to control
- Type: functional
attribute_measured: inhibition at 30 µM

>>> result("CN(CC1CCCCC1)[C@H]1C2C3CC4C5C3CC2C5C41 (stereo not given in full)")
"0%"
>>> result("C1C2C3CC4C2C2C1C3[C@H](NCC13C5C6C7C5C1C7C63)C42 (stereo not given in full)")
"18.1%"
>>> result("COc1ccc(CN2C3C4C5CC6C7C5C3C7C2(O)C64)cc1OC (stereo not given)")
"12.3%"
>>> result("c1ccc(CCN[C@H]2C3C4CC5C6C4CC3C6C52)cc1 (stereo not given in full)")
"7%"
>>> result("OC12C3C4CC5C6C4C1C6C(C53)N2Cc1cccc(F)c1 (stereo not given)")
"17.3%"
>>> result("c1ccc(CCCCN2CCC(c3ccccc3)CC2)cc1")
"9%"
>>> result("OC12C3C4CC5C6C4C1C6C(C53)N2Cc1ccccc1 (stereo not given)")
"7.6%"
>>> result("Fc1cccc(CCN[C@H]2C3C4CC5C6C4CC3C6C52)c1 (stereo not given in full)")
"11.9%"
>>> result("Fc1cccc(CCCN[C@H]2C3C4CC5C6C4CC3C6C52)c1 (stereo not given in full)")
"17.9%"
>>> result("C1CCC(CN[C@H]2C3C4CC5C6C4CC3C6C52)CC1 (stereo not given in full)")
"10.2%"
